Where do these numbers come from? They come from patent US20200392116A1.

TEST_PROTOCOL: Potency code of Table 2 (assay not stated)
MEASURE: Potency code

Examples with their reported Potency code follow.
COMPOUND: Oc1cc(OCc2ccc(Cl)cc2)ccc1-c1n[nH]cc1Oc1ccccc1Cl [NUCC-0196343]
REPORTED_VALUE: + (>40 +)
--
COMPOUND: CCc1[nH]nc(-c2ccc(OCc3ccc(Cl)cc3)cc2O)c1-c1ccccc1 [NUCC-0198301]
REPORTED_VALUE: + (>40 +)
--
COMPOUND: COc1ccc(COc2ccc(-c3cc(C(F)(F)F)n(C)n3)c(O)c2-c2cc(C(F)(F)F)cc(C(F)(F)F)c2)cc1 [NUCC-0201043]
REPORTED_VALUE: + (>40 +)
--
COMPOUND: Cc1ccc(C)c(Oc2c[nH]nc2-c2ccc(OCc3ccc4ccccc4c3)cc2O)c1 [NUCC-0196290]
REPORTED_VALUE: + (>40 +)
--
COMPOUND: Oc1cc(OCc2ccc(Cl)cc2)ccc1-c1n[nH]c(C(F)(F)F)c1-c1ccccc1 [NUCC-0198295]
REPORTED_VALUE: ++++ (<10 ++++)

Below: the item to evaluate.
Exercise: Reported Potency code for O=C(O)c1cc(-c2ccc(OCc3ccc(Cl)cc3)c(-c3cc(C(F)(F)F)cc(C(F)(F)F)c3)c2O)n[nH]1 [NUCC-0200973] : what is it?
Solution: ++++ (<10 ++++)

###

Hi there, I'd appreciate the recorded pIC50 for every entry that follows.
Tested on: MYC transcriptional activity (c-Myc E-box-luciferase reporter, MycCap cells)
TEST_PROTOCOL: MYC E-box luciferase reporter assay
Assay type: cell-based
PROTOCOL_CONDITIONS: Mus musculus, Myc-CaP; class symbols; read-out: Eboc reporter IC50
pIC50: −log10 of the molar value.

Exercise: # pIC50 lookup, item Cn1nc(C(F)(F)F)cc1-c1c(Cl)cc(OCc2ccc(Cl)cc2)c(-c2ccc(Cl)c(C(F)(F)F)c2)c1O [NUCC-0202987]
Solution: > 5.30

Exercise: Any idea what its pIC50 is? The compound is Oc1c(-c2cc(C(F)(F)F)n[nH]2)c(Cl)cc(OCc2ccc(Cl)cc2)c1-c1ccc(Cl)c(C(F)(F)F)c1 [NUCC-0202986]
Solution: > 5.30

Exercise: Which pIC50 value is on record for Oc1cc(CNc2ccc(Cl)c(C(F)(F)F)c2)ccc1-c1cc(C(F)(F)F)n[nH]1 [NUCC-0202993] ?
Solution: 5.00 to 5.30

Exercise: Fill in: pIC50 of Cn1nc(C(F)(F)F)cc1-c1ccc(C(=O)Nc2ccc(Cl)c(C(F)(F)F)c2)cc1O [NUCC-0202984] is ___
Solution: > 5.30

Exercise: Which pIC50 is listed for Cn1nc(C(F)(F)F)cc1-c1ccc(CNc2ccc(Cl)c(C(F)(F)F)c2)cc1O [NUCC-0202980] ?
Solution: 4.30 to 5.00

Exercise: Data request, read-out pIC50, for CN(C(=O)c1ccc(-c2cc(C(F)(F)F)n[nH]2)c(O)c1)c1ccc(Cl)c(C(F)(F)F)c1 [NUCC-0202989]
Solution: 4.30 to 5.00

Exercise: Would you kindly share the measured pIC50 for CN(C(=O)c1ccc(-c2cc(C(F)(F)F)n(C)n2)c(O)c1)c1ccc(Cl)c(C(F)(F)F)c1 [NUCC-0202991] ?
Solution: 4.30 to 5.00

Exercise: Given the entry CN(C(=O)c1ccc(-c2cc(C(F)(F)F)nn2C)c(O)c1)c1ccc(Cl)c(C(F)(F)F)c1 [NUCC-0202990] , report its measured pIC50.
Solution: 4.30 to 5.00

Exercise: For O=C(Nc1ccc(Cl)c(C(F)(F)F)c1)c1ccc(-c2cc(C(F)(F)F)n[nH]2)c(O)c1 [NUCC-0202992] , what is its reported pIC50?
Solution: 5.00 to 5.30

Exercise: Return reported pIC50; argument: Cn1nc(-c2ccc(C(=O)Nc3ccc(Cl)c(C(F)(F)F)c3)cc2O)cc1C(F)(F)F [NUCC-0202985]
Solution: < 4.30

Exercise: Any idea what its pIC50 is? The compound is Cn1nc(-c2ccc(CNc3ccc(Cl)c(C(F)(F)F)c3)cc2O)cc1C(F)(F)F [NUCC-0202981]
Solution: 4.30 to 5.00

Exercise: // pIC50 lookup, key: Cn1nc(-c2c(Cl)cc(OCc3ccc(Cl)cc3)c(-c3ccc(Cl)c(C(F)(F)F)c3)c2O)cc1C(F)(F)F [NUCC-0202988]
Solution: < 4.30
